- test-description: Acute oral toxicity test, probability unit method (Bliss method), LD50 by Probit regression
- Type: in vivo, SD rats
- condition-parameters: both sexes, Sprague-Dawley, rat, in vivo, po; SD rats, Probit regression
property: LD50 at 14 days (mg/kg)
Please give a number only; it is taken to be in mg/kg.

Request: Any idea what LD50 at 14 days was measured for `CNC(=O)O/N=C(/C(=O)N(C)C)S(C)(=O)=O` ?
Response: 822

###

- test-description: Half-life test (hydrolysis in neutral distilled water, HPLC)
- Type: physicochemical
- condition-parameters: neutral distilled water, neutral aqueous solution, 25° C.
property: half-life (min)
Could you give me the number in min? Just the number is fine.

Request: Item `CNC(=O)O/N=C(/C(=O)N(C)C)S(C)(=O)=O` has what recorded half-life?
Response: 120
